All values here come from ChEMBL document CHEMBL1649302.

Experiment: Therapeutic index, ratio of CC50 for human PBMC to EC50 for HIV1 93BR029 infected in human PBMC
Details: read-out: TI
MEASURED_ATTRIBUTE: selectivity ratio
Quick one: just the number, no unit, thanks!

[ask] Given CC(C)(C)c1ccc(C(Cn2cccc(C(F)(F)F)c2=O)NC2Cc3ccccc3C2)cc1 (stereo unspecified) , respond with its selectivity ratio.
[reply] 30

* * *

Test: Therapeutic index, ratio of CC50 for human PBMC to EC50 for HIV1 NL4-3 infected in human PBMC
Conditions: read-out: TI
MEASURED_ATTRIBUTE: selectivity ratio

[ask] Provide measured selectivity ratio value, entry: CC(C)(C)c1ccc(C(Cn2cccc(C(F)(F)F)c2=O)NC2Cc3ccccc3C2)cc1 (stereo unspecified)
[reply] 155

* * *

Assay: Therapeutic index, ratio of CC50 for human PBMC to EC50 for HIV1 92TH026 infected in human PBMC
Details: read-out: TI
MEASURED_ATTRIBUTE: selectivity ratio

[ask] Read off the recorded selectivity ratio for CC(C)(C)c1ccc(C(Cn2cccc(C(F)(F)F)c2=O)NC2Cc3ccccc3C2)cc1 (stereo unspecified)
[reply] < 1

* * *

Assay: Therapeutic index, ratio of CC50 for human PBMC to EC50 for HIV1 93BR021 infected in human PBMC
Conditions: read-out: TI
MEASURED_ATTRIBUTE: selectivity ratio
// keep it numeric: no unit symbol after the value

[ask] Find the measured selectivity ratio of CC(C)(C)c1ccc(C(Cn2cccc(C(F)(F)F)c2=O)NC2Cc3ccccc3C2)cc1 (stereo unspecified) and report it.
[reply] 425

* * *

Test: Therapeutic index, ratio of CC50 for human PBMC to EC50 for HIV1 92HT596 infected in human PBMC
Settings: read-out: TI
MEASURED_ATTRIBUTE: selectivity ratio
Lab note: record the figure alone, no unit after it.

[ask] // Input: CC(C)(C)c1ccc(C(Cn2cccc(C(F)(F)F)c2=O)NC2Cc3ccccc3C2)cc1 (stereo unspecified) . Output its selectivity ratio only.
[reply] 53

* * *

Test: Therapeutic index, ratio of CC50 for human MT2 cells to EC50 for HIV1 92HT599 infected in human MT2 cells
Type: cell-based
Conditions: read-out: TI
MEASURED_ATTRIBUTE: selectivity ratio
Just the number, please.

[ask] Find the measured selectivity ratio of CC(C)(C)c1ccc(C(Cn2cccc(C(F)(F)F)c2=O)NC2Cc3ccccc3C2)cc1 (stereo unspecified) and report it.
[reply] 90

* * *

Assay: Therapeutic index, ratio of CC50 for human PM1 cells to EC50 for HIV1 Ba-L infected in human PM1 cells
Format: cell-based
Conditions: read-out: TI
MEASURED_ATTRIBUTE: selectivity ratio
Lab note: jot down the number only; don't add units.

[ask] Tell me selectivity ratio reported for CC(C)(C)c1ccc(C(Cn2cccc(C(F)(F)F)c2=O)NC2Cc3ccccc3C2)cc1 (stereo unspecified)
[reply] 4

* * *

Assay: Therapeutic index, ratio of CC50 for human PBMC to EC50 for HIV1 92US076 infected in human PBMC
Details: read-out: TI
MEASURED_ATTRIBUTE: selectivity ratio
Number only, no unit.

[ask] Tell me selectivity ratio reported for CC(C)(C)c1ccc(C(Cn2cccc(C(F)(F)F)c2=O)NC2Cc3ccccc3C2)cc1 (stereo unspecified)
[reply] 2430

* * *

Tested on: Human immunodeficiency virus 1
Experiment: Antiviral activity HIV1 NL4-3 infected in human PBMC after 7 days by scintillation counting
Assay type: functional, organism-based
Conditions: Human immunodeficiency virus 1, NL4-3, 168 h
MEASURED_ATTRIBUTE: EC50
Note: state the figure and append the unit.

[ask] Report measured EC50; entry is CC(C)(C)c1ccc(C(Cn2cccc(C(F)(F)F)c2=O)NC2Cc3ccccc3C2)cc1 (stereo unspecified)
[reply] 110 nM

* * *

Experiment: Cytotoxicity against human MT2 cells after 6 days by XTT assay
Assay type: cell-based
MEASURED_ATTRIBUTE: CC50 at 144 h (µM)
State just the number; it will be interpreted in µM.

[ask] Answer with reported CC50 at 144 h of CC(C)(C)c1ccc(C(Cn2cccc(C(F)(F)F)c2=O)NC2Cc3ccccc3C2)cc1 (stereo unspecified)
[reply] 15
